Where these numbers come from: patent US20250382363A1

Entries and their No of serum samples >30% inhibition (30% CCP) without SCP (serum samples)
Target: pre-existing anti-drug antibodies (ADA) present in human sera
Assay: pre-existing ADA ELISA, scFv coated, human sera unspiked vs spiked
observed_property: No of serum samples >30% inhibition (30% CCP) without SCP (serum samples)

1) PRO2994 (scFv 54-21-H03-sc01_(P48A)) (scFv, PRO1922 variant; VH substitution, AHo numbering; also called PRO1922 P48A) scFv: DIQMTQSPSSLSASVGDRVTITCQASESIYSSLAWYQQKPGKAPKLLIYLASTLASGVPSRFSGSGSGTDFTLTISSLQPEDFATYYCQSTDYTTSTHRNSFGTGTKVTVLGGGGGSGGGGSGGGGSGGGGSEVQLVESGGGLVQPGGSLRLSCAASGFSFSTTYYMCWVRQAAGKGLEWIGCTNTASSVRTYYATWAKGRFTISRDNSKNTVYLQMNSLRAEDTAVYYCARDMGFADYALNLWGQGTLVTVSS : 6
2) PRO3348 (scFv 54-21-H03-sc01_(T101K, T146D)) (scFv, PRO1922 variant; VH substitutions, AHo numbering; also called PRO1922 T101K-T146D) scFv: DIQMTQSPSSLSASVGDRVTITCQASESIYSSLAWYQQKPGKAPKLLIYLASTLASGVPSRFSGSGSGTDFTLTISSLQPEDFATYYCQSTDYTTSTHRNSFGTGTKVTVLGGGGGSGGGGSGGGGSGGGGSEVQLVESGGGLVQPGGSLRLSCAASGFSFSTTYYMCWVRQAPGKGLEWIGCTNTASSVRTYYATWAKGRFTISRDNSKNTVYLQMNSLRAEDKAVYYCARDMGFADYALNLWGQGTLVDVSS : 0
